TESTED_ON: recombinant ROCK2 (amino acids 1-552) (Homo sapiens, UniProt O75116)
Construct: ROCK2 (amino acids 1-552) proteins were purchased from ThermoFisher Scientific; purchased ThermoFisher Scientific
Sequence (O75116 1-552): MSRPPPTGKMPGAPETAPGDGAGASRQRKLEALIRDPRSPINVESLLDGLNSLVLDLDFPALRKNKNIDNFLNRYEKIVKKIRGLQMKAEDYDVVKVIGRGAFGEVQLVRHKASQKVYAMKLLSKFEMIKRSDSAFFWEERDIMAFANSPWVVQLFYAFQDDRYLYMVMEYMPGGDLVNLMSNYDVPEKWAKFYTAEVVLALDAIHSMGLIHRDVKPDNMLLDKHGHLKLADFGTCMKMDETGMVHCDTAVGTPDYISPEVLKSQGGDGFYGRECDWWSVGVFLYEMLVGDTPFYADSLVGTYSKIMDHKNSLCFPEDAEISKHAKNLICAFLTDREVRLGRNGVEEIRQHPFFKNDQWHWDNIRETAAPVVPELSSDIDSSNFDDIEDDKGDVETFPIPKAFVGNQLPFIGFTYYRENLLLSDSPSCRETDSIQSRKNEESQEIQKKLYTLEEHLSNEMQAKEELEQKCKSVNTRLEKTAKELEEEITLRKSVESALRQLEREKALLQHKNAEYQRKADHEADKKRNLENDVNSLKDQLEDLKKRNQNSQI
PROCEDURE_TEXT: Z'-lyte kinase assay, ROCK2
Type: biochemical
DETAILS: 3 μM; read-out: ROCK2 % inh
MEASUREMENT_LABEL: inhibition at 3 µM (%)
Numbers only, in %.

Take a look at these entries with their results.
COMPOUND	inhibition at 3 µM [%]
COc1ccc(C(NC(C)(C)C)C(=O)Nc2ccc3[nH]ncc3c2)cc1 (centres unmarked)	98.8
Cc1ccc(C(NC(C)(C)C)C(=O)Nc2ccc3[nH]ncc3c2)cc1 (centres unmarked)	100
NC(C(=O)Nc1ccc2[nH]ncc2c1)c1ccccc1F (centres unmarked) [Comp7, reference compound]	100
NC(C(=O)Nc1ccc2[nH]ncc2c1)c1cccc(F)c1 (centres unmarked) [Comp6, reference compound]	98.8

Moving on to another compound below.
Supply reported inhibition at 3 µM belonging to this compound: CC(C)(C)NC(C(=O)Nc1ccc2[nH]ncc2c1)c1ccccc1 (centres unmarked)
98.8

---

Record form. Attribute: concentration at 0.25 h. Fill in for each entry.
PROCEDURE_TEXT: Brain and plasma concentrations in mouse by HPLC/MS/MS after 2.5 mg/kg IV
Format: in vivo
DETAILS: plasma, iv, 2.5 mg/kg, read-out: Mean Conc. at 0.25 hr, Plasma
Give your result as the value with the unit written after it.

COMPOUND	concentration at 0.25 h
CNC(C(=O)Nc1ccc2[nH]ncc2c1)c1ccc(Oc2cccc(OC)c2)cc1 (centres unmarked) [Example 15]	394 ng/mL

Moving on to another compound below.
Supply reported concentration at 0.25 h belonging to this compound: CNC(C(=O)Nc1ccc2[nH]ncc2c1)c1cccc(OC)c1 (centres unmarked) [Example 41]
427 ng/mL

---

System: phospho-myosin light chains (ppMlc, Thr18/Ser19) in A7R5 cells
PROCEDURE_TEXT: A7R5 in-cell ELISA, phospho-myosin light chain
Assay type: cell-based, rat
DETAILS: Rattus norvegicus, 1.5 h; A7R5 cells, 90 min; read-out: pMLC IC50 A7R5
Protocol: Determination of compounds ROCK inhibitory activity in A7R5 cells: rat aortic smooth muscle cell line A7R5 cells were maintained and treated in DMEM medium with 10% of fetal bovine serum. Cells were seeded with density of 5,000 cells/well in 96-well plates for 24 hours and subsequently treated 90 min with testing compounds. […] Cellular phospho-myosin light chains (ppMlc, Thr18/Ser19) levels were determined after treatments of DMSO control or test compounds using the In-Cell ELISA kit. […]
MEASUREMENT_LABEL: log10 of IC50 (log10 of the value in nM)
Annotation: log10 of IC50, nM basis.

Take a look at these entries with their results.
COMPOUND	log10 of IC50
O=C(Nc1ccc2[nH]ncc2c1)C1NCCc2ccccc21 (centres unmarked)	4.55
CCNC(C(=O)Nc1ccc2[nH]ncc2c1)c1cccc(Cl)c1 (centres unmarked)	2.86
COc1ccc(C(N)C(=O)Nc2ccc3[nH]ncc3c2)cc1 (centres unmarked) [Comp4, reference compound]	3.79
CNC(C(=O)Nc1ccc2[nH]ncc2c1)c1ccc(OC)cc1 (centres unmarked)	2.35
Cc1ccc(C(NC(C)C)C(=O)Nc2ccc3[nH]ncc3c2)cc1 (centres unmarked)	2.97

Would you mind giving log10 of IC50 for every compound in the list below?
1. COc1ccc(C(NC2CC2)C(=O)Nc2ccc3[nH]ncc3c2)cc1 (centres unmarked)
2. CC(C)(C)NC(C(=O)Nc1ccc2[nH]ncc2c1)c1ccccc1 (centres unmarked)
3. CNC(C(=O)Nc1ccc2[nH]ncc2c1)c1ccc(F)cc1 (centres unmarked)

[3.47, 3.41, 3.20]
